Biological target: UniProt Q16762
Sequence (Q16762 whole entry): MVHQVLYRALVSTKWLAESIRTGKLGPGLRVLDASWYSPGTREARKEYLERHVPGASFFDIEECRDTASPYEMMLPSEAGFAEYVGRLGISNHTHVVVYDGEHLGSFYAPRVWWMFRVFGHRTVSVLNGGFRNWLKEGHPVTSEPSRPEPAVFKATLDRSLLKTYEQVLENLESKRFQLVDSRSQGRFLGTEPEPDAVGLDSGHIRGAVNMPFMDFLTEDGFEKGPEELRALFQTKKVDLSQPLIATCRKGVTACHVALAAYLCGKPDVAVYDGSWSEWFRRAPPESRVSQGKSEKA

{"columns": ["molecule", "study-target", "IC50"],
 "data": [
  ["O=C(OC[C@H]1O[C@@H](OC(=O)c2cc(O)c(O)c(OC(=O)c3cc(O)c(O)c(O)c3)c2)[C@H](OC(=O)c2cc(O)c(O)c(OC(=O)c3cc(O)c(O)c(O)c3)c2)[C@@H](OC(=O)c2cc(O)c(O)c(OC(=O)c3cc(O)c(O)c(O)c3)c2)[C@@H]1OC(=O)c1cc(O)c(O)c(OC(=O)c2cc(O)c(O)c(O)c2)c1)c1cc(O)c(O)c(OC(=O)c2cc(O)c(O)c(O)c2)c1", "UniProt Q16762", "39 µM"],
  ["O=C(/C=C/c1ccc(O)cc1)c1ccccc1 [4-HYDROXYCHALCONE]", "UniProt Q16762", "> 100 µM"],
  ["O=C(O)C1=CC(=C(c2ccc(O)c(C(=O)O)c2)c2ccc(O)c(C(=O)O)c2)C=CC1=O", "UniProt Q16762", "> 100 µM"],
  ["CCCCC/C=C\\C/C=C\\C/C=C\\C/C=C\\CCCC(=O)O", "UniProt Q16762", "> 100 µM"],
  ["O=C(/C=C/c1ccccc1)c1ccc(O)cc1 [4'-HYDROXYCHALCONE]", "UniProt Q16762", "> 100 µM"],
  ["CC1=CC(=O)c2c(O)cccc2C1=O", "UniProt Q16762", "0.06 µM"],
  ["COc1ccc(-c2ccc3cc(C(=O)O)ccc3c2)cc1C12CC3CC(CC(C3)C1)C2", "UniProt Q16762", "> 100 µM"],
  ["COc1cc(NC(C)CCCN)c2ncccc2c1 (stereo not drawn)", "UniProt Q16762", "2.9 µM"]
]}

* * *

IC50 tested on Chaperonin GroEL (Escherichia coli (strain K12), UniProt P0A6F5): recorded values;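 also: inhibition of GroEL ATPase activity with ATP as substrate, 60 min incubation, spectrometric read-out, recombinant enzyme produced in Escherichia coli DH5alpha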
Sequence (P0A6F5 whole entry): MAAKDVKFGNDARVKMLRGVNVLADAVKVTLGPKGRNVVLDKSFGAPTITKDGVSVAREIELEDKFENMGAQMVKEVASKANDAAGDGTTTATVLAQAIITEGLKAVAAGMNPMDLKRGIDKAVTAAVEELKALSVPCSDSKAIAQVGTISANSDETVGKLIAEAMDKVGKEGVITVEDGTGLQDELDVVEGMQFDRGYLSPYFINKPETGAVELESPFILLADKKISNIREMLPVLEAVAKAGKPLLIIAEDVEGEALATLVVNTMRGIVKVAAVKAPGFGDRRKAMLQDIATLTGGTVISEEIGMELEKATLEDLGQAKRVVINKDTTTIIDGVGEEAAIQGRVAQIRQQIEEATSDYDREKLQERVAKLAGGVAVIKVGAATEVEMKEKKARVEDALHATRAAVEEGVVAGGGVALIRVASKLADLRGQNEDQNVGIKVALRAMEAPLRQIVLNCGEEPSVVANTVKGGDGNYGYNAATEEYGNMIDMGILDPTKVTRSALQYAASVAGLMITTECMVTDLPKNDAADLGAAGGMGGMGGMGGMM

{"columns": ["compound", "IC50"],
 "data": [
  ["COc1ccc(C(=O)/C=C/c2ccccc2)cc1", "> 250 µM"],
  ["CCCCC/C=C\\C/C=C\\C/C=C\\C/C=C\\CCCC(=O)O", "> 250 µM"],
  ["CC[C@H](C)[C@H]1O[C@]2(C=C[C@@H]1C)C[C@@H]1C[C@@H](C/C=C(\\C)[C@@H](O[C@H]3C[C@H](OC)[C@@H](O[C@H]4C[C@H](OC)[C@@H](O)[C@H](C)O4)[C@H](C)O3)[C@@H](C)/C=C/C=C3\\CO[C@@H]4[C@H](O)C(C)=C[C@@H](C(=O)O1)[C@]34O)O2", "> 250 µM"],
  ["C=CC1=C(C)c2cc3[nH]c(cc4nc(cc5[nH]c(cc1n2)c(C)c5CCC(=O)O)C(CCC(=O)O)=C4C)c(C)c3C=C", "> 250 µM"],
  ["CCCCCCCCCCCCCCCCC(C(=O)O)C(O)(CC(=O)O)C(=O)O (stereo unspecified)", "> 250 µM"],
  ["C=C1CC[C@H](O)C/C1=C/C=C1\\CCC[C@]2(C)[C@@H]([C@H](C)/C=C/[C@H](C)C(C)C)CC[C@@H]12", "> 250 µM"]
]}
